All figures here come from patent US20260347373A1.

Target: WT KRAS (Homo sapiens, UniProt P01116)
Sequence (P01116 1-188 isoform P01116-2): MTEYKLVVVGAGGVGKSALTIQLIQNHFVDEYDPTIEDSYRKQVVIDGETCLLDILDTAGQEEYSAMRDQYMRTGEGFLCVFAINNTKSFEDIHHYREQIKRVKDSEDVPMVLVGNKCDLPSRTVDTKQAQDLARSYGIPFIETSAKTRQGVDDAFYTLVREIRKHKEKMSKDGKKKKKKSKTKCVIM
Assay: KRAS WT Probe Displacement Assay (TR-FRET, GDP-loaded)
Format: binding
Settings: KRAS WT, read-out: KRAS^WT Probe Displacement Assay IC50
pIC50: −log10 of the molar value.
observationType: pIC50

Cc1cc(N)cc(-c2nc3c4c(nc(OC[C@]5(CN(C)C)CC5(F)F)nc4c2F)N2C[C@H]4CC[C@H](N4)[C@H]2CC(C)O3)c1C(F)(F)F (single isomer, unassigned) [Example 249]	6.00 to 8.52
Cc1cc(N)cc(-c2nc3c4c(nc(O[C@@H](C)[C@@H]5C[C@@H](F)CN5C)nc4c2F)N2C[C@H]4CC[C@H](N4)[C@H]2CCO3)c1C(F)(F)F [Example 74]	6.00 to 8.52

Then there is this molecule:
Task: Which pIC50 is listed for Cc1cc(N)cc(-c2nc3c4c(nc(OCC5(CN6CC(C(F)(F)F)C6)CC5)nc4c2F)N2C[C@H]4CC[C@H](N4)[C@H]2CCO3)c1C(F)(F)F [Example 79] ?
Result: 6.00 to 8.52

----------
Molecular target: KRAS G12D (Homo sapiens, UniProt P01116, G12D)
Sequence (P01116 1-188 isoform P01116-2 G12D): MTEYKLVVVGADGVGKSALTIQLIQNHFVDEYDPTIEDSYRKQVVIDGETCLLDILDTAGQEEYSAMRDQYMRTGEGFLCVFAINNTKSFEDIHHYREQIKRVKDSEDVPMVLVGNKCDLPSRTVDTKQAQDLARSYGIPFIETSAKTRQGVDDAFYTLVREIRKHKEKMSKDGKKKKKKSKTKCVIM
Assay: KRAS G12D Probe Displacement Assay (TR-FRET, GDP-loaded)
Format: binding
Conditions: KRAS G12D, read-out: KRAS^G12D Probe Displacement Assay IC50
observationType: IC50

For orientation, consider the following solved cases.
Cc1cc(N)cc(-c2nc3c4c(nc(OCC5(CN6CCCC6CO)CC5)nc4c2F)N2C[C@H]4CC[C@H](N4)[C@H]2CCO3)c1C(F)(F)F (single isomer, unassigned) [Example 124]	0.3 to 3 nM
CO[C@H]1CCN(C)[C@@H]1C(C)Oc1nc2c3c(nc(-c4cc(N)cc(C)c4C(F)(F)F)c(F)c3n1)OCC[C@@H]1[C@@H]3CC[C@H](CN21)N3 (single isomer, unassigned) [Example 76]	0.3 to 3 nM
C=C1CN2C[C@H]3C[C@H]3[C@]2(COc2nc3c4c(nc(-c5cc(N)cc(C)c5C(F)(F)F)c(F)c4n2)OCC[C@@H]2[C@@H]4CC[C@H](CN32)N4)C1 [Example 212]	< 0.3 nM
Cc1cc(N)cc(-c2nc3c4c(nc(O[C@@H](C)[C@@H]5CCCN5C5CCOC5)nc4c2F)N2C[C@H]4CC[C@H](N4)[C@H]2CCO3)c1C(F)(F)F (single isomer, unassigned) [Example 228]	< 0.3 nM
Cc1cc(N)cc(-c2nc3c4c(nc(OCC5(CN6CCOC[C@H]6C)CC5)nc4c2F)N2C[C@H]4CC[C@H](N4)[C@H]2CCO3)c1C(F)(F)F [Example 163]	< 0.3 nM
CN(C)C1(C)CN(c2nc3c4c(nc(-c5cc(N)cc(Cl)c5C(F)(F)F)c(F)c4n2)OCC[C@@H]2[C@@H]4CC[C@H](CN32)N4)C1 [Example 31]	0.3 to 3 nM
Cc1cc(N)cc(-c2nc3c4c(nc(OCC5(CN6CCC(O)(C(F)(F)F)C6)CC5)nc4c2F)N2C[C@H]4CC[C@H](N4)[C@H]2CCO3)c1C(F)(F)F (mixture of isomers) [Example 92]	< 0.3 nM
Cc1cc(N)cc(-c2nc3c4c(nc(OCC5(CN6CCC(OC(F)(F)F)CC6)CC5)nc4c2F)N2C[C@H]4CC[C@H](N4)[C@H]2CCO3)c1C(F)(F)F [Example 177]	< 0.3 nM
[2H]C([2H])([2H])N1CC[C@H](OC)[C@H]1[C@H](C)Oc1nc2c3c(nc(-c4cc(N)cc(C)c4C(F)(F)F)c(F)c3n1)OCC[C@@H]1[C@@H]3CC[C@H](CN21)N3 [Example 142]	< 0.3 nM

Task: Suppose we examine the compound Cc1cc(N)cc(-c2nc3c4c(nc(OC[C@@]56CCCN5CC(=C(F)F)C6)nc4c2F)N2C[C@H]4CC[C@H](N4)[C@H]2CCO3)c1C(F)(F)F [Example 200] ; what IC50 value has been reported?
Result: < 0.3 nM
